TESTED_TARGET: hERG (Homo sapiens, UniProt Q12809)
TEST_NAME: in vitro
EXPERIMENTAL_CONTEXT: peptide at 0.2 μM; 100% = no change, <100% = inhibition
Catalogue of Activity of hERG with peptide, expressed as a percentage of the reference compound values
Give just the numeric value; % need not be written.

For orientation, consider the following solved cases.
12 (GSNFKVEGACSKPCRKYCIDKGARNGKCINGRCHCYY) [compound 12] | 89
23 (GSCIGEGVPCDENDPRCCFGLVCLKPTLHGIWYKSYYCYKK) [compound 23] | 92

Prompt: Quick check: Activity of hERG with peptide, expressed as a percentage of the reference compound of 27 (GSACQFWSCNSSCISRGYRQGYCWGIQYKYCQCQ) [compound 27] ?
Response: 90

---

TESTED_TARGET: Kv2.1 (Homo sapiens, UniProt Q14721)
Construct: host or cells: HEK293 or CHO
Sequence (Q14721 whole entry): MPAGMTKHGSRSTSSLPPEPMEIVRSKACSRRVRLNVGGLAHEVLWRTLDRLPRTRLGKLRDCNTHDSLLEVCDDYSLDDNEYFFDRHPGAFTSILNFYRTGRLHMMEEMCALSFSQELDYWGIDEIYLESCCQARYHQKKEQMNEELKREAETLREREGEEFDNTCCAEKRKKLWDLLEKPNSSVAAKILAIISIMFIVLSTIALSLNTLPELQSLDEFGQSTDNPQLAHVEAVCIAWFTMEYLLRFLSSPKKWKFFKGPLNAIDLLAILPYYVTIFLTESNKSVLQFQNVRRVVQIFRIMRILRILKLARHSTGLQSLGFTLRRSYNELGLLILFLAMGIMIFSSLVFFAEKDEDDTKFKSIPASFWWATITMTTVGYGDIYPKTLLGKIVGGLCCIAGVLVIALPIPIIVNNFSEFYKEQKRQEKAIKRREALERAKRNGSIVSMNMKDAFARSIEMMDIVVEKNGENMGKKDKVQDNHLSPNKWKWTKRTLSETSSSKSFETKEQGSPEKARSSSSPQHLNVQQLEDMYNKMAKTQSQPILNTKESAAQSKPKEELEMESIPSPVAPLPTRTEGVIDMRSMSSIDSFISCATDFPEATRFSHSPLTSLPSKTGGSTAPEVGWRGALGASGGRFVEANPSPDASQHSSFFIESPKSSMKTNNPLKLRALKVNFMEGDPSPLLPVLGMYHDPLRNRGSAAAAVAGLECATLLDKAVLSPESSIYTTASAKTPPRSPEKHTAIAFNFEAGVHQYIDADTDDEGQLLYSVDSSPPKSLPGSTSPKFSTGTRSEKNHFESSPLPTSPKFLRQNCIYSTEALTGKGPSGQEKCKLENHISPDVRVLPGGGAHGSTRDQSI
TEST_NAME: cell-based
EXPERIMENTAL_CONTEXT: peptide at 20 μM; 100% = no change, <100% = inhibition
MEASURED_ENDPOINT: Activity of Kv2.1 with peptide (percentage of the reference compound) (%)
Give just the numeric value; % need not be written.

For orientation, consider the following solved cases.
13 (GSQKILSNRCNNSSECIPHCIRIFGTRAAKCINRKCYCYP) [compound 13] | 116
22 (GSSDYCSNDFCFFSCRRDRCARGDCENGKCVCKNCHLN) [compound 22] | 93
27 (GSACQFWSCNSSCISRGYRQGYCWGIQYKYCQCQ) [compound 27] | 94
26 (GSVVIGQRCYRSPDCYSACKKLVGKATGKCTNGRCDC) [compound 26] | 102
39 (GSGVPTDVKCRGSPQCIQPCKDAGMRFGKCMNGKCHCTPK) [compound 39] | 102
2 (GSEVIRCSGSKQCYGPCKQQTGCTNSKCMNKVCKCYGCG) [compound 2] | 87
32 (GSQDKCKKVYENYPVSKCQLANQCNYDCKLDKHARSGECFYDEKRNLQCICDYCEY) [compound 32] | 93
25 (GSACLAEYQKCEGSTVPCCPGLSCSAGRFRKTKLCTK) [compound 25] | 107
3 (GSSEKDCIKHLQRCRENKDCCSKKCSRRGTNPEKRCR) [compound 3] | 81
30 (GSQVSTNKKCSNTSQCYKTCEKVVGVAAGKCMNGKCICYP) [compound 30] | 106

The record that follows has no Activity of Kv2.1 with peptide (percentage of the reference compound) shown yet.
Prompt: Provide the documented Activity of Kv2.1 with peptide (percentage of the reference compound) with Kv2.1 (Homo sapiens, UniProt Q14721) as the system for 21 (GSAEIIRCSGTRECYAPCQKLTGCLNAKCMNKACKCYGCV) [compound 21]
Response: 108

---

TESTED_TARGET: α4β2 (Homo sapiens, UniProt P17787+P43681)
Construct: host or cells: HEK293 or CHO
Sequence (P43681 29-627): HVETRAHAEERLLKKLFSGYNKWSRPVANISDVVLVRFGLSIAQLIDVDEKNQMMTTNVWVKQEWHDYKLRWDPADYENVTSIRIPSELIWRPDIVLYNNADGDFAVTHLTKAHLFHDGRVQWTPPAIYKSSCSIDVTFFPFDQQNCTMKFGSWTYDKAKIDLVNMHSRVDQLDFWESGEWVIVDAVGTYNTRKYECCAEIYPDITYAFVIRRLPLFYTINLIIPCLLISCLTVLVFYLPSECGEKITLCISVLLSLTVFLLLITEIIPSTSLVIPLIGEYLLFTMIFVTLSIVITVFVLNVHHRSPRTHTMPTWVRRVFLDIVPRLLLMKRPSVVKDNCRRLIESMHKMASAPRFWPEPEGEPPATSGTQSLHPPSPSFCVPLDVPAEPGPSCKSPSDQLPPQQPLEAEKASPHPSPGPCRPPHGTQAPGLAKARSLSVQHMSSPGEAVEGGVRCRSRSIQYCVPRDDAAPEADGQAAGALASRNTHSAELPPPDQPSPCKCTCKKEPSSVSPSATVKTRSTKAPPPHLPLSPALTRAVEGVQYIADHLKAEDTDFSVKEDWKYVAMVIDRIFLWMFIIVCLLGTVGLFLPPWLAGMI
Sequence (P17787 26-502): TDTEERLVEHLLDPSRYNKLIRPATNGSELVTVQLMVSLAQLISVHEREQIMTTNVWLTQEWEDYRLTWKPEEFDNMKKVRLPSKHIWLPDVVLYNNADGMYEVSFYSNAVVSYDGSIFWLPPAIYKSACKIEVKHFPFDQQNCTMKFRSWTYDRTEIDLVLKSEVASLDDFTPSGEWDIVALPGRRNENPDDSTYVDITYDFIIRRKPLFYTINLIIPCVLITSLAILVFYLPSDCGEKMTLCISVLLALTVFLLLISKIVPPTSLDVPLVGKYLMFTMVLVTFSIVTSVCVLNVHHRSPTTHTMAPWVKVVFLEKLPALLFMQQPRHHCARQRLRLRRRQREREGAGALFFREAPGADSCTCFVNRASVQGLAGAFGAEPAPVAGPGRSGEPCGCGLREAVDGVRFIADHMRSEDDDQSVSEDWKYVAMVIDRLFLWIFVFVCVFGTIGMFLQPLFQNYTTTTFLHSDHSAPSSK
TEST_NAME: Ion channel panel (IonWorks Barracuda): α4β2
Type: cell-based
EXPERIMENTAL_CONTEXT: peptide at 0.2 μM; 100% = no change, <100% = inhibition
MEASURED_ENDPOINT: Activity of a4b2 with peptide, expressed as a percentage of the reference compound (%)
Give just the numeric value; % need not be written.

For orientation, consider the following solved cases.
15 (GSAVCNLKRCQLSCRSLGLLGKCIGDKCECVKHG) [compound 15] | 71
5 (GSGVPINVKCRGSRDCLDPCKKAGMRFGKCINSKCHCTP) [compound 5] | 83
39 (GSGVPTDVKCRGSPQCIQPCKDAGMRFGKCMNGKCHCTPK) [compound 39] | 98
38 (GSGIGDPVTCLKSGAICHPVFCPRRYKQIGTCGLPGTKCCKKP) [compound 38] | 107
2 (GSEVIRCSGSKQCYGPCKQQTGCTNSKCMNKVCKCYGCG) [compound 2] | 95

Prompt: Provide the documented Activity of a4b2 with peptide, expressed as a percentage of the reference compound with α4β2 (Homo sapiens, UniProt P17787+P43681) as the system for 18 (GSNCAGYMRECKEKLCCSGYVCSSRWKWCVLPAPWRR) [compound 18]
Response: 109

Prompt: Provide the documented Activity of a4b2 with peptide, expressed as a percentage of the reference compound with α4β2 (Homo sapiens, UniProt P17787+P43681) as the system for 4 (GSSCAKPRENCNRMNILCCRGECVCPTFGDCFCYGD) [compound 4]
Response: 86

Prompt: Provide the documented Activity of a4b2 with peptide, expressed as a percentage of the reference compound with α4β2 (Homo sapiens, UniProt P17787+P43681) as the system for 12 (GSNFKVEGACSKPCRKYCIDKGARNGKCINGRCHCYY) [compound 12]
Response: 97

Prompt: Provide the documented Activity of a4b2 with peptide, expressed as a percentage of the reference compound with α4β2 (Homo sapiens, UniProt P17787+P43681) as the system for 30 (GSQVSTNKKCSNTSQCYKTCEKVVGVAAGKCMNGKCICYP) [compound 30]
Response: 89

Prompt: Provide the documented Activity of a4b2 with peptide, expressed as a percentage of the reference compound with α4β2 (Homo sapiens, UniProt P17787+P43681) as the system for 32 (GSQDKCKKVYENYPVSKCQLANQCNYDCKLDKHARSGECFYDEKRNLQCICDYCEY) [compound 32]
Response: 81

---

TESTED_TARGET: Nav1.7 (Homo sapiens)
Construct: host or cells: HEK293 or CHO
Sequence (Q15858 whole entry): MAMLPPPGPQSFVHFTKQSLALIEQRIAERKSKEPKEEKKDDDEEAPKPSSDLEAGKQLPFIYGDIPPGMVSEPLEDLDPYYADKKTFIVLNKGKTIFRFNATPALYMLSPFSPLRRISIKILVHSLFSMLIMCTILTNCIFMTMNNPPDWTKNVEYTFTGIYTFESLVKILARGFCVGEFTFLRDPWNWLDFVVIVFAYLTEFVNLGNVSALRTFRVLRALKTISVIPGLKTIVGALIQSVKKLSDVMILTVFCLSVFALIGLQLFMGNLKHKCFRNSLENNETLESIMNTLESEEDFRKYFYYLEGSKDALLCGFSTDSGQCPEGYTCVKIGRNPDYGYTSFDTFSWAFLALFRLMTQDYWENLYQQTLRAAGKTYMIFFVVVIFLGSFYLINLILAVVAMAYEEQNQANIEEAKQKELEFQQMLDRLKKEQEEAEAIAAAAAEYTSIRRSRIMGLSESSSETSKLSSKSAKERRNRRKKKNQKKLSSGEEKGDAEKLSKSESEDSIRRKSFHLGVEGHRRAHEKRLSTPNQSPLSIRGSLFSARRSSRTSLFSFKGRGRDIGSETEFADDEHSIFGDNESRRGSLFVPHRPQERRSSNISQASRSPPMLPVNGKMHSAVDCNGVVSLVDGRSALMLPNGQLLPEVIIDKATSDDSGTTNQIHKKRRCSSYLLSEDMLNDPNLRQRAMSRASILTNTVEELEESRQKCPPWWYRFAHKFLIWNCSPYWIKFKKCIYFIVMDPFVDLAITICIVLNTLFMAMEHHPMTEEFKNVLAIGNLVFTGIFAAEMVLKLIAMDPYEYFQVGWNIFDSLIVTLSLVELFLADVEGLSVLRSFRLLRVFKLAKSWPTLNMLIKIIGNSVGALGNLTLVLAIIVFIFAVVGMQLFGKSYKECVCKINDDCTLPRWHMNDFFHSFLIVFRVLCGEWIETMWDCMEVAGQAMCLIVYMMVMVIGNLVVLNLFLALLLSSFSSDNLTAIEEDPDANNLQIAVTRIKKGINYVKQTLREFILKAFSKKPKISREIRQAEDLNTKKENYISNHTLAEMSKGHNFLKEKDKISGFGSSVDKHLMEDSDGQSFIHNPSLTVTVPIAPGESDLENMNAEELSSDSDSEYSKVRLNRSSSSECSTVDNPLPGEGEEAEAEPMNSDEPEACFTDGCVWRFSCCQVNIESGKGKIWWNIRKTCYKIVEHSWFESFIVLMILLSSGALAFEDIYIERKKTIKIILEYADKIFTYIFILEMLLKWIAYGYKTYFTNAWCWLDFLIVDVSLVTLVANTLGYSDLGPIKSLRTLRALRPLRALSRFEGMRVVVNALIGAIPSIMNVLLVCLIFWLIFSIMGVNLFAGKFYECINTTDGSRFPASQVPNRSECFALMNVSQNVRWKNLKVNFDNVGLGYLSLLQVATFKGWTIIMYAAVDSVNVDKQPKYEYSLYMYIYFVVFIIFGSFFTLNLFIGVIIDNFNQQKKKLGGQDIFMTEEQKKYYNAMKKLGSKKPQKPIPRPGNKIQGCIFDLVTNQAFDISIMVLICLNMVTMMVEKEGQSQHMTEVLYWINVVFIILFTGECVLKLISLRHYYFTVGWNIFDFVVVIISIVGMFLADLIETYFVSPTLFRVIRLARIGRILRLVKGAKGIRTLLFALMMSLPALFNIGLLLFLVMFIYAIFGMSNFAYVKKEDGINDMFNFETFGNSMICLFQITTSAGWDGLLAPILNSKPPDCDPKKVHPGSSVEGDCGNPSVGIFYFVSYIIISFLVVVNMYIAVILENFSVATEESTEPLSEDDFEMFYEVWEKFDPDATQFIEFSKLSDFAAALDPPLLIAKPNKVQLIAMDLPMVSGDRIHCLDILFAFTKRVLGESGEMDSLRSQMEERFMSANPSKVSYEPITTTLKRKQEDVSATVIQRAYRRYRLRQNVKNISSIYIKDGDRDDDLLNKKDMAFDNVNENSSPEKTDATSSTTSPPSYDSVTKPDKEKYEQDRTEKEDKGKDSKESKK
TEST_NAME: cell-based
Format: cell-based
EXPERIMENTAL_CONTEXT: peptide at 20 μM; second of two Nav1.7 columns (probably TP2); 100% = no change
Catalogue of Activity of Nav1.7 with peptide (percentage of the reference compound) values
Give just the numeric value; % need not be written.

30 (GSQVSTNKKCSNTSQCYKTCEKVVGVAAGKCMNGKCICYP) [compound 30] | 54

Prompt: Provide the documented Activity of Nav1.7 with peptide (percentage of the reference compound) with Nav1.7 (Homo sapiens) as the system for 2 (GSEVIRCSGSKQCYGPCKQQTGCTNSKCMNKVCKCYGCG) [compound 2]
Response: 91

Prompt: Provide the documented Activity of Nav1.7 with peptide (percentage of the reference compound) with Nav1.7 (Homo sapiens) as the system for 20 (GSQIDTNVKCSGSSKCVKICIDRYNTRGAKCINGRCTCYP) [compound 20]
Response: 95

---

TESTED_TARGET: Cav2.2 (Homo sapiens, UniProt Q00975)
Construct: host or cells: HEK293 or CHO
TEST_NAME: cell-based
EXPERIMENTAL_CONTEXT: peptide at 0.2 μM; 100% = no change, <100% = inhibition
MEASURED_ENDPOINT: Activity of Cav2.2 with peptide, expressed as a percentage of the reference compound (%)
Give just the numeric value; % need not be written.

For orientation, consider the following solved cases.
11 (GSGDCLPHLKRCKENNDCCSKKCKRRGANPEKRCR) [compound 11] | 100
39 (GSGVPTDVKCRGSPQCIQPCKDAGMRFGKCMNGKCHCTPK) [compound 39] | 117
38 (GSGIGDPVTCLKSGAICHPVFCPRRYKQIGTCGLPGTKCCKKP) [compound 38] | 117

Prompt: Quick check: Activity of Cav2.2 with peptide, expressed as a percentage of the reference compound of 3 (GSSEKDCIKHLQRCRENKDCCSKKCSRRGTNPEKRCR) [compound 3] ?
Response: 103

Prompt: Quick check: Activity of Cav2.2 with peptide, expressed as a percentage of the reference compound of 26 (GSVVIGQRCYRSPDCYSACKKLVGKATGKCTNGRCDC) [compound 26] ?
Response: 103

Prompt: Quick check: Activity of Cav2.2 with peptide, expressed as a percentage of the reference compound of 27 (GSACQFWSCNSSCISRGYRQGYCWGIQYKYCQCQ) [compound 27] ?
Response: 105

---

TESTED_TARGET: Kv1.2 (Homo sapiens)
Construct: host or cells: HEK293 or CHO
Sequence (P16389 whole entry): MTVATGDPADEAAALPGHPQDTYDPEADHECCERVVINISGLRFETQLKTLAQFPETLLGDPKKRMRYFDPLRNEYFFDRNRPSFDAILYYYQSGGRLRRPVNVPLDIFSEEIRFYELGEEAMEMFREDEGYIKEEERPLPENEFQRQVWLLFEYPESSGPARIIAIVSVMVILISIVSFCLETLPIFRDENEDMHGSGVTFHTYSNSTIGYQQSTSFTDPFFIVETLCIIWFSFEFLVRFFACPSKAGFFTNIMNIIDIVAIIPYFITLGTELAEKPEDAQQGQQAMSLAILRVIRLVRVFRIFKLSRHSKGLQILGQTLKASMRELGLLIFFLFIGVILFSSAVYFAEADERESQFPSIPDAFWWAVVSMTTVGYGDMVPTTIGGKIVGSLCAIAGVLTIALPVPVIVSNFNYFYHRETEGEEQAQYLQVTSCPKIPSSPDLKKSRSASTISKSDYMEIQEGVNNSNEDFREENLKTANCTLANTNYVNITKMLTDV
TEST_NAME: cell-based
Type: cell-based
EXPERIMENTAL_CONTEXT: peptide at 0.2 μM; 100% = no change, <100% = inhibition
MEASURED_ENDPOINT: Activity of Kv1.2 with peptide, expressed as a percentage of the reference compound (%)
Give just the numeric value; % need not be written.

For orientation, consider the following solved cases.
27 (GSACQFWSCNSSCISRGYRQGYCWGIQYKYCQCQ) [compound 27] | 84
29 (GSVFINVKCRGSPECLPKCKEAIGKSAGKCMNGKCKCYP) [compound 29] | 77

The record that follows has no Activity of Kv1.2 with peptide, expressed as a percentage of the reference compound shown yet.
Prompt: Provide the documented Activity of Kv1.2 with peptide, expressed as a percentage of the reference compound with Kv1.2 (Homo sapiens) as the system for 39 (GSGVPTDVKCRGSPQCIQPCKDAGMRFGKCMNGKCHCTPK) [compound 39]
Response: 96
